Method: chemical genetic growth profiling, strain panel (AID 1159580);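 also: tested at 20 µM; growth read once vehicle control cultures reached saturation at 30 °C; 1 = growth at the plate median or of vehicle wells; lower values mean less growth of the strain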
Assay Context: S. cerevisiae deletion strains, growth OD, locus YGL227W, strain vid30, hits give low values
The campaign covered roughly 5,500 compounds. About 2,000 (36%) were called active. About 18% were inconclusive and are not listed. The list shows a part of the results.
Each record here notes measured normalized growth.
Measured Parameter: normalized growth

Compound	Measurement
COc1ccc(-c2cc(=O)c3c(O)cc(O)cc3o2)cc1	0.99
NC[C@H]1O[C@H](OC2[C@@H](N)C[C@@H](N)[C@H](O[C@H]3O[C@H](CO)[C@@H](O)[C@H](N)[C@H]3O)[C@H]2O)[C@H](O)[C@@H](O)[C@@H]1O (some centres undefined)	0.991
COc1cc(-c2cc(=O)c3c(O)c(OC)c(OC)c(OC)c3o2)cc(OC)c1OC	1.01
CC[C@@]1(O)C(=O)OCc2c1cc1n(c2=O)Cc2cc3cc(O)ccc3nc2-1	1.01
CC1(C)C(=O)CC[C@@]2(C)C1C[C@@H](O)[C@@]1(C)C3=CC(=O)O[C@@H](c4ccoc4)[C@]3(C)CCC21 (some centres undefined)	1.03
C[N+]1(C)C[C@H](O)[C@H](C(=O)[O-])C1	1.01
CC1(C)S[C@@H]2[C@H](NC(=O)[C@@H](N)c3ccc(O)cc3)C(=O)N2[C@H]1C(=O)O	1
COc1ccc(-c2cc(=O)c3c(OC)c(OC)c(OC)c(OC)c3o2)cc1OC	0.985
CCn1nc(C(=O)O)c(=O)c2cc3c(cc21)OCO3	1.01
